Please respond with reported speed of sound for every item in the list.
Details: 298.15 K; 101 kPa; Liquid; Linear variable-path acoustic interferometer
The answer is to be given in m/s; state only the numeric part.

QUERY: Endpoint output: speed of sound of CCOCCO . Value?
RESULT: 1302.5

QUERY: Endpoint output: speed of sound of COCCOCCO . Value?
RESULT: 1422.6

QUERY: Endpoint output: speed of sound of CCOCCOCCO . Value?
RESULT: 1378

QUERY: Endpoint output: speed of sound of COCCO . Value?
RESULT: 1341.7

====

Assay: refractive index (Na D-line) (dimensionless)
Conditions: 298.15 K; 101.33 kPa; Liquid; Abbe refractometer
Please respond with reported refractive index for every item in the list.
The answer should be written as a number, with no unit following it.

QUERY: Endpoint output: refractive index of COCCO . Value?
RESULT: 1.4002

QUERY: Endpoint output: refractive index of CCOCCOCCO . Value?
RESULT: 1.425

QUERY: Endpoint output: refractive index of COCCOCCO . Value?
RESULT: 1.425

QUERY: Endpoint output: refractive index of CCOCCO . Value?
RESULT: 1.4058

====

Details: 298.15 K; 101 kPa; Liquid; Pycnometric method
Experimental readout: mass density (kg/m3)
The answer is to be given in kg/m3; state only the numeric part.

QUERY: Endpoint output: mass density of CCOCCOCCO [3,6-dioxa-1-octanol] . Value?
RESULT: 984.6

QUERY: Endpoint output: mass density of CCOCCO [2-ethoxyethan-1-ol] . Value?
RESULT: 925.39

QUERY: Endpoint output: mass density of O [water] . Value?
RESULT: 999.704

QUERY: Endpoint output: mass density of COCCO [2-methoxyethan-1-ol] . Value?
RESULT: 960.23

QUERY: Endpoint output: mass density of COCCOCCO [2-(2-methoxyethoxy)ethanol] . Value?
RESULT: 1016.95
